System: rice
experiment: Test D flooded paddy test
Type: in vivo, Oryza sativa
conditionParameters: 250 g ai/ha, applied to paddy water, visual rating after 13 to 14 days, scale 0 to 100 (0 no effect, 100 complete control)
measurementType: Plant response rating, Rice (Flood)
Returns: the value as a bare number; no unit string appended.

Query: If you can, please state the reported Plant response rating, Rice (Flood) value of CCOC[C@H]1CN(C(=O)c2cc(-n3cnc(CC)n3)cc3c2OCCO3)c2cccc(Cl)c2O1 .
Result: 10

Query: Would you kindly repeat that for COc1ccc(-n2cncn2)cc1C(=O)N1C[C@H](C)Oc2c(F)cccc21 ?
Result: 10

Query: Would you kindly repeat that for Cc1ccc(-n2cnc(C3(C#N)CCC3)n2)cc1C(=O)N1C[C@H](C)Oc2c(Cl)cccc21 ?
Result: 0

Query: Would you kindly repeat that for CCc1ncn(-c2ccc(OC)c(C(=S)N3C[C@H](C)Oc4c(C)cccc43)c2)n1 ?
Result: 10

Query: Would you kindly repeat that for COC[C@H]1CN(C(=O)c2cc(-n3cnc(C4CCC4)n3)cc3c2OCCO3)c2cccc(Cl)c2O1 ?
Result: 10

Query: Would you kindly repeat that for CSc1ccc(-n2cnc(C(C)C)n2)cc1C(=O)N1C[C@H](C)Oc2c(Cl)cccc21 ?
Result: 0

Query: Would you kindly repeat that for C=C(C)c1cc(C(=O)N2C[C@H](C)Oc3c(Cl)cccc32)cc(-n2cncn2)c1 ?
Result: 0

Query: Would you kindly repeat that for CC(C)c1ncn(-c2cc(C(=O)N3CC(C(F)(F)F)Oc4c(Cl)cccc43)ccn2)n1 (racemic) ?
Result: 0

Query: Would you kindly repeat that for Cc1ccc(-n2cnc(C(C)C)n2)cc1C(=O)N1C[C@H](C)Oc2c1cccc2C(F)(F)F ?
Result: 15

Query: Would you kindly repeat that for Cc1ccc(-n2cnc(C(C)(C)C)n2)cc1C(=O)N1CC(C(F)(F)F)Oc2c(Cl)cccc21 (single isomer, unassigned) ?
Result: 0

Query: Would you kindly repeat that for CC(C)c1ncn(-c2ccc(SC(F)(F)F)c(C(=O)N3C[C@H](C)Oc4c(Cl)cccc43)c2)n1 ?
Result: 0

Query: Would you kindly repeat that for CCc1ccc(-n2cnc(C(C)C)n2)cc1C(=O)N1C[C@H](C)Oc2c(C)cccc21 ?
Result: 10

Query: Would you kindly repeat that for CC1Oc2ccccc2N(C(=O)c2cccc(-n3cncn3)c2)C1C (stereo not drawn) ?
Result: 0

Query: Would you kindly repeat that for Cc1ncc(-c2cccc(C(=O)N3C[C@H](C)Oc4c(Cl)cccc43)c2)s1 ?
Result: 0

Query: Would you kindly repeat that for Cc1ccc(-n2cnc(C3(C)CC3)n2)cc1C(=O)N1C[C@H](C)Oc2c(Cl)cccc21 ?
Result: 0

Query: Would you kindly repeat that for COC(C)c1ncn(-c2ccc(C)c(C(=O)N3CC(C)Oc4c(Cl)cccc43)c2)n1 (mixture of isomers) ?
Result: 10

Query: Would you kindly repeat that for CCc1c(C)cc(-n2cnc(C(C)C)n2)cc1C(=O)N1C[C@H](C)Oc2c(Cl)cccc21 ?
Result: 0

Query: Would you kindly repeat that for CCOc1ncn(-c2cccc(C(=O)N3C[C@H](C)Oc4c(Cl)cccc43)c2)n1 ?
Result: 0

Query: Would you kindly repeat that for Cc1cccc2c1OC(C(F)(F)F)CN2C(=O)c1ccnc(-n2cnc(C(C)C)n2)c1 (stereo not drawn) [Compound 327] ?
Result: 0

Query: Would you kindly repeat that for CCc1ncn(-c2cc3c(c(C(=O)N4C[C@H](C)Oc5c(Cl)cccc54)c2)OCCO3)n1 ?
Result: 15

Query: Would you kindly repeat that for COc1c(F)cc(-n2cnc(C(C)C)n2)cc1C(=O)N1C[C@H](C)Oc2c(Cl)cccc21 ?
Result: 0

Query: Would you kindly repeat that for C[C@H]1CN(C(=O)c2cc(-n3cncn3)cc(C(F)(F)F)c2)c2cccc(Cl)c2O1 ?
Result: 0

Query: Would you kindly repeat that for Cc1cccc2c1OC(C(F)(F)F)CN2C(=O)c1ccnc(-n2cnc(C(C)C)n2)c1 (single isomer, unassigned) [Compound 328] ?
Result: 0

Query: Would you kindly repeat that for C[C@H]1CN(C(=O)c2cccc(-n3cnc(C4CC4)n3)c2)c2cccc(Cl)c2O1 ?
Result: 0

Query: Would you kindly repeat that for Cc1cccc2c1O[C@@H](C)CN2C(=O)c1cc(-n2cnc(C(C)C)n2)cc2c1CCO2 ?
Result: 0

Query: Would you kindly repeat that for Cc1cnn(-c2cccc(C(=O)N3C[C@H](C)Oc4c(Cl)cccc43)c2)c1 ?
Result: 0

Query: Would you kindly repeat that for COc1cc(C(=O)N2C[C@H](C)Oc3c(Cl)cccc32)cc(-n2cnc(C3CC3)n2)c1 ?
Result: 10

Query: Would you kindly repeat that for CC(C)c1ncn(-c2cccc(C(=O)N3CC(C(F)(F)F)Oc4c(Cl)cccc43)c2)n1 (single isomer, unassigned) ?
Result: 10

Query: Would you kindly repeat that for COc1cc(C(=O)N2C[C@H](C)Oc3c(Cl)cccc32)cc(-n2cnc(C)n2)c1 ?
Result: 55

Query: Would you kindly repeat that for Cc1nnc(-c2cccc(C(=O)N3C[C@H](C)Oc4c(Cl)cccc43)c2)o1 ?
Result: 0
